- ASSAY_NOTES: passive permeability, PAMPA, ADME assay (AID 1508612)
- MEASUREMENT_CONDITIONS: pH 7.4, 30.0 min, 50.0 µM
METRIC_NAME: Papp

These solved cases illustrate the format of a correct answer.
### Prompt State the recorded Papp for this entry: O=C(Nc1ncc(Cc2ccc(C(F)(F)F)cc2)s1)c1cnc(-c2ccccc2)[nH]1
### Response < 1 ×10⁻⁶ cm/s

### Prompt State the recorded Papp for this entry: CCCCN(CC)CCNC(=O)c1cc2c(-c3ccc(Cl)cc3)nn(C)c2s1
### Response > 1000 ×10⁻⁶ cm/s

### Prompt State the recorded Papp for this entry: O=C(NCCCc1ccccc1)c1cccc(-c2cc(O)c3ncccc3c2)c1
### Response < 1 ×10⁻⁶ cm/s

### Prompt State the recorded Papp for this entry: CC(=O)Nc1ccc(CN2CCc3nc(C(C)C)nc(-c4ccc(Cl)cc4)c3CC2)cc1
### Response > 1000 ×10⁻⁶ cm/s

### Prompt State the recorded Papp for this entry: c1ccc(Nc2cc(-c3ccoc3)ncn2)cc1
### Response > 1000 ×10⁻⁶ cm/s

Next:
### Prompt State the recorded Papp for this entry: O=C(Nc1nc(-c2ccc(F)cc2)cs1)c1ccncc1NS(=O)(=O)c1ccccc1Cl
### Response > 1000 ×10⁻⁶ cm/s

### Prompt State the recorded Papp for this entry: O=C1CN(C(=O)CCC(=O)N2CCc3c(nc4cc(-c5ccccc5)[nH]n4c3=O)C2)c2ccccc2N1
### Response < 1 ×10⁻⁶ cm/s

### Prompt State the recorded Papp for this entry: CNC(=O)c1nn(C)c2c1C(C)(C)Cc1cnc(Nc3ccc(N4CCN(C)CC4)cc3)nc1-2
### Response > 1000 ×10⁻⁶ cm/s

---

- ASSAY_NOTES: passive permeability, PAMPA, ADME assay (AID 1508612)
- MEASUREMENT_CONDITIONS: pH 7.4, 30.0 min, 50.0 µM
Listed compounds paired with reported Papp
Note: unit ×10⁻⁶ cm/s is implicit; provide only the numeric part.

These solved cases illustrate the format of a correct answer.
### Prompt State the recorded Papp for this entry: O=C1Nc2ccccc2/C1=C/c1ccc[nH]1
### Response 606

### Prompt State the recorded Papp for this entry: Cc1ccc(Nc2nc(C)c(NC(=O)c3ccc(C)cc3)c(Nc3ccc(C)cc3)n2)cc1
### Response 291

### Prompt State the recorded Papp for this entry: O=[S+]([O-])(Nc1ccccc1)c1ccc(NCc2cccc(C(F)(F)F)c2F)cc1
### Response 306

Here is another compound to look at.
### Prompt State the recorded Papp for this entry: CC(=O)c1ccc(-c2csc(N3CCC(C(N)=O)CC3)n2)cc1
### Response 300

---

Listed compounds paired with reported Papp
- ASSAY_NOTES: passive permeability, PAMPA, ADME assay (AID 1508612)
- MEASUREMENT_CONDITIONS: pH 7.4, 30.0 min, 50.0 µM

These solved cases illustrate the format of a correct answer.
### Prompt State the recorded Papp for this entry: CS(=O)(=O)c1ccc(-c2nnc(/C=C/c3nnc(-c4ccc(C#N)cc4)o3)n2-c2ccccc2Cl)nc1
### Response > 1000 ×10⁻⁶ cm/s

### Prompt State the recorded Papp for this entry: CCCc1cc(C)[nH]c(=O)c1CNC(=O)c1cc(-c2ccc(N3CCN(C(C)C)CC3)nc2)cc2c1cnn2C(C)C
### Response > 1000 ×10⁻⁶ cm/s

Here is another compound to look at.
### Prompt State the recorded Papp for this entry: CCn1nnnc1Sc1ncnc2scc(-c3ccc(C)cc3)c12
### Response > 1000 ×10⁻⁶ cm/s

---

- ASSAY_NOTES: passive permeability, PAMPA, ADME assay (AID 1508612)
- MEASUREMENT_CONDITIONS: pH 7.4, 30.0 min, 50.0 µM
METRIC_NAME: Papp (×10⁻⁶ cm/s)
Note: unit ×10⁻⁶ cm/s is implicit; provide only the numeric part.

These solved cases illustrate the format of a correct answer.
### Prompt State the recorded Papp for this entry: COc1cccc(CNc2ccc(S(=O)(=O)Nc3cccnc3)cc2)c1O
### Response 632

### Prompt State the recorded Papp for this entry: Nc1nc2c(s1)C(c1ccccc1OCc1ccccc1Cl)CC(=O)N2 (centres undefined)
### Response 509

### Prompt State the recorded Papp for this entry: C[S+](=O)([O-])c1ccc(-c2nc(C(=O)NCc3cccnc3)n3ccccc23)cc1
### Response 540

### Prompt State the recorded Papp for this entry: O=C(Nc1nc2cc(C(F)(F)F)cc(NC3CC3)n2n1)c1cccnc1
### Response 197

### Prompt State the recorded Papp for this entry: Nc1nc2c(s1)C(c1ccc(F)c(F)c1)CC(=O)N2 (centres undefined)
### Response 265

Next:
### Prompt State the recorded Papp for this entry: CCc1oc2ccccc2c1C(=O)c1cc(Br)c(O)c(Br)c1
### Response 62

### Prompt State the recorded Papp for this entry: Nc1nc(N)c2c(OCC3CCN(Cc4ccccc4F)CC3)cccc2n1
### Response 938

---

- ASSAY_NOTES: passive permeability, PAMPA, ADME assay (AID 1508612)
- MEASUREMENT_CONDITIONS: pH 7.4, 30.0 min, 50.0 µM
Each entry falls in a class defined on Papp; the bands are lower = under 70 ×10⁻⁶ cm/s, middle = from 70 ×10⁻⁶ cm/s up to 500 ×10⁻⁶ cm/s, upper = 500 ×10⁻⁶ cm/s and over

Use the examples below as a reference point.
### Prompt Which class does Fc1cnc(-c2ccccc2C(F)F)nc1NCC1CCN(c2cnccn2)C1 (centres undefined) fall in?
### Response upper

### Prompt Which class does Cc1cc(C)nc(NC(=S)N2CCN(Cc3ccc(C(F)(F)F)cc3)CC2)c1 fall in?
### Response upper

### Prompt Which class does O=C(NCc1cccnc1)c1nc(-c2ccc(Cl)nc2)c2cnccn12 fall in?
### Response middle

Next:
### Prompt Which class does CC(C)CN(CC(=O)N(CCCN1CCCC1=O)CC(N)=O)C(=O)CNCCc1ccccc1F fall in?
### Response lower

### Prompt Which class does CCNC(=O)c1noc(-c2cc(C(C)C)c(O)cc2O)c1-c1ccc(CN2CCOCC2)cc1 fall in?
### Response middle

### Prompt Which class does CC(C)c1ccccc1-c1nc2c(c(NCc3ccc(-c4cccnc4)cc3)n1)CNC2 fall in?
### Response middle

### Prompt Which class does Cc1cccc(CN2CCN(c3ccccn3)CC2)c1 fall in?
### Response upper

### Prompt Which class does NC(=O)C1CCN(c2nccc(-c3ccc4c(c3)OCCO4)n2)CC1 fall in?
### Response middle

### Prompt Which class does Cc1ccnc(NC(=S)N2CCCC(Nc3cccc(C(F)(F)F)c3)C2)c1 (centres undefined) fall in?
### Response upper

### Prompt Which class does Fc1ccc(Oc2nc(-c3ccncc3)nc3ccccc23)cc1F fall in?
### Response lower

### Prompt Which class does CN(C)C(=O)C1CCN(c2nc(-c3ccc(Br)cc3)cs2)CC1 fall in?
### Response upper

### Prompt Which class does COc1cccc(CNc2ccc(S(=O)(=O)Nc3cc(C)on3)cc2)c1O fall in?
### Response lower

---

- ASSAY_NOTES: passive permeability, PAMPA, ADME assay (AID 1508612)
- MEASUREMENT_CONDITIONS: pH 7.4, 30.0 min, 50.0 µM
METRIC_NAME: Papp

These solved cases illustrate the format of a correct answer.
### Prompt State the recorded Papp for this entry: COc1ccc(C)cc1Nc1c2c(nc3ccccc13)CCC2
### Response > 1000 ×10⁻⁶ cm/s

### Prompt State the recorded Papp for this entry: CCOc1ccc(CCNC(=O)c2cc3sccc3n2Cc2ccncc2)cc1OCC
### Response > 1000 ×10⁻⁶ cm/s

### Prompt State the recorded Papp for this entry: Cc1cc(C)nc(NC(=S)N2CCN(c3cccc([N+](=O)[O-])c3)CC2)c1
### Response > 1000 ×10⁻⁶ cm/s

### Prompt State the recorded Papp for this entry: CN(C)c1ccc2cc(C(=O)N[C@@H](CCCN=C(N)CCl)C(=O)NCc3ccccc3)ccc2c1
### Response < 1 ×10⁻⁶ cm/s

### Prompt State the recorded Papp for this entry: Fc1cnc(-c2ccccc2C(F)F)nc1NCc1ccc(-n2ccnn2)cc1
### Response > 1000 ×10⁻⁶ cm/s

### Prompt State the recorded Papp for this entry: CCN1CCCC1CNC(=O)c1cc(S(=O)(=O)CC)c(N)cc1OC (configuration not stated)
### Response < 1 ×10⁻⁶ cm/s

Here is another compound to look at.
### Prompt State the recorded Papp for this entry: COc1ccc(Nc2cc3c(nc2OC)nc(CCc2ccccc2)n3C)cn1
### Response > 1000 ×10⁻⁶ cm/s

---

- ASSAY_NOTES: passive permeability, PAMPA, ADME assay (AID 1508612)
- MEASUREMENT_CONDITIONS: pH 7.4, 30.0 min, 50.0 µM
Listed molecules paired with reported Papp

### Prompt State the recorded Papp for this entry: Nc1ncnc(N2CCc3ccccc32)c1[N+](=O)[O-]
### Response 295 ×10⁻⁶ cm/s

Here is another molecule to look at.
### Prompt State the recorded Papp for this entry: Cc1cccc(N2CCN(c3nc4ccccc4c4nnc(C)n34)CC2)c1C
### Response 887 ×10⁻⁶ cm/s
